# ASSAY_PROTOCOL: protein stability index of a GFP-peptide fusion (GPS, HEK-293T) (PSI 1-6); higher = more stable;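 further: 24-mer peptide tiles fused after GFP, lentivirally expressed, FACS-sorted into six equal bins by GFP/DsRed ratio, decoded by Illumina sequencing, PSI is the read-weighted mean bin number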
# MEASUREMENT_CONTEXT: treatment: DMSO; c terminus: a fixed tail appended
READOUT_KIND: protein stability index
Form field (numeric): enter value without unit.

In the examples that follow, each entry is paired with its recorded protein stability index.
Which protein stability index reading was recorded for the sequence MGETKIIYHLDGQETPYLVKLPLP [DVL3] ?
2.2

Which protein stability index reading was recorded for the sequence TPPTPAPTSGIVGALMEVMQKRSK [WASL] ?
4.55

Next:
Which protein stability index reading was recorded for the sequence DDHSVRVAREDVRESCPPLGLETL [CPXM2] ?
4.85

Which protein stability index reading was recorded for the sequence NILPNTQKVTCFYQPAPYFAAEAR [TENT5D] ?
2.49

Which protein stability index reading was recorded for the sequence STVISSMPCLLMELRRDSSESQLA [C18orf25] ?
3.02

Which protein stability index reading was recorded for the sequence KMNDSEGMDPERLKAFNMFVRLFV [NOL4L] ?
2.08

Which protein stability index reading was recorded for the sequence YEWARDHRAHHKFSETHADPHNSR [SCD] ?
3.96

Which protein stability index reading was recorded for the sequence HGEELRVSARSREGRGGRPGSTRP [HAGHL] ?
4.92

Which protein stability index reading was recorded for the sequence EIPWTSLTRKGLVRVVFFPLFSNW [PHTF1] ?
3.09

Data credit: the supplement of paper PMC10567573
